Cited source for all entries: patent US4063015A

Please consider the recorded MIC for Streptococcus pyogenes C in what follows.

Below, 4 molecules whose answers are already recorded.
CN[C@@H]1[C@@H](O)[C@@H](O[C@@H]2[C@@H](O)[C@H](O[C@H]3O[C@H](CN)[C@@H](O)[C@H](O)[C@H]3N)[C@@H](N)C[C@H]2N)OC[C@]1(C)O [JI-20A] | 17.5 mg/L
CN[C@@H]1[C@@H](O)[C@@H](O[C@@H]2[C@@H](O)[C@H](O[C@H]3O[C@H](CN)[C@@H](O)C[C@H]3N)[C@@H](N)C[C@H]2N)OC[C@]1(C)O [3'-deoxy-JI-20A] | 0.8 to 7.5 mg/L
CN[C@@H]1[C@@H](O)[C@@H](O[C@@H]2[C@@H](O)[C@H](O[C@H]3O[C@H](CO)[C@@H](O)[C@H](O)[C@H]3N)[C@@H](N)C[C@H]2N)OC[C@]1(C)O (stereo in doubt) [Gentamicin X2] | 1 to 17.5 mg/L
CNC[C@H]1O[C@H](O[C@H]2[C@H](O)[C@@H](O[C@H]3OC[C@](C)(O)[C@H](NC)[C@H]3O)[C@H](N)C[C@@H]2N)[C@H](O)C[C@@H]1O [3'-Deoxy-6'-N-methylgentamicin B] | 0.1 to 17.5 mg/L

Consider the record given below.
Summary: CCN[C@@H]1C[C@H](O)[C@@H](CO)O[C@@H]1O[C@H]1[C@H](O)[C@@H](O[C@H]2OC[C@](C)(O)[C@H](NC)[C@H]2O)[C@H](N)C[C@@H]1N [3'-Deoxy-2'-N-ethylgentamicin X2] , Streptococcus pyogenes C, MIC = > 25 mg/L

###

# Test system: Escherichia coli
# Assay notes: Minimal Inhibitory Concentration (MIC), Table I
# Assay type: cell-based
Here the recorded MIC is given for each entry.

These recorded examples may help you get a feel for the data.
CNC[C@H]1O[C@H](O[C@H]2[C@H](O)[C@@H](O[C@H]3OC[C@](C)(O)[C@H](NC)[C@H]3O)[C@H](N)C[C@@H]2N)[C@H](O)C[C@@H]1O [3'-Deoxy-6'-N-methylgentamicin B] | 0.1 to 0.75 µg/mL
CN[C@@H]1[C@@H](O)[C@@H](O[C@@H]2[C@@H](O)[C@H](O[C@H]3O[C@H](CO)[C@@H](O)C[C@H]3N)[C@@H](N)C[C@H]2N)OC[C@]1(C)O [3'-Deoxygentamicin X2] | 3 to 7.5 µg/mL

Query molecule follows.
Short answer for CN[C@@H]1[C@@H](O)[C@@H](O[C@@H]2[C@@H](O)[C@H](O[C@H]3O[C@H](CO)[C@@H](O)[C@H](O)[C@H]3N)[C@@H](N)C[C@H]2N)OC[C@]1(C)O (stereo in doubt) [Gentamicin X2] : MIC was 0.8 to 3 µg/mL
